Target: adenosine A1 receptor (Homo sapiens, UniProt P30542)
Construct: expressed in transfected cells; host or cells: CHO (Chinese Hamster Ovary)
Sequence (P30542 whole entry): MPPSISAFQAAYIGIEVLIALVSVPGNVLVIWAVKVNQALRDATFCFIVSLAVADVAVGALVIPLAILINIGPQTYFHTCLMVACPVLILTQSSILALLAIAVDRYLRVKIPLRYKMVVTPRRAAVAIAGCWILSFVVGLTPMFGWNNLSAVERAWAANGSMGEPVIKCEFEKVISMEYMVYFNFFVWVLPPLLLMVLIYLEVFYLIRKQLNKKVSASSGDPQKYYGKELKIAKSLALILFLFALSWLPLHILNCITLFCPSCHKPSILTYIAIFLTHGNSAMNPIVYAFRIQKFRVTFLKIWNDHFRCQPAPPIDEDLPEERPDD
Experiment: Indirect determination of adenosine agonism by way of gene expression (luciferase), A1 cells
Assay type: cell-based
Details: stably transfected CHO cells; 1 μM forskolin; 50% inhibition of luciferase response
property-name: EC50 (nM)

compound: N#Cc1c(NC[C@H](O)CO)nc(SCc2csc(-c3ccc(Cl)cc3)n2)c(C#N)c1-c1nccs1
EC50 (nM): 0.5

(1) N#Cc1c(SCc2coc(-c3ccc(Cl)cc3)n2)nc(N2CC(O)C2)c(C#N)c1-c1nccs1
(2) N#Cc1c(SCc2csc(-c3ccc(Cl)cc3)n2)nc(N2CC(O)C2)c(C#N)c1-c1cc[nH]n1
(3) CC(O)Cn1ccc(-c2c(C#N)c(N)nc(SCc3csc(-c4ccc(Cl)cc4)n3)c2C#N)n1 (stereo not shown)
# desc sort on EC50 across 3 compounds Enter labels, ranked according to the request. 3, 2, 1
